Value source: the supplement of paper PMC10567573

B1: NP_002788.1 (parent)
chain: DGWIRVSSDNVADLHEKYSGSTP

# Variants of: B1
# assay_text: protein stability index of a GFP-peptide fusion (GPS, HEK-293T) (PSI 1-6); higher = more stable;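 also: lentivirally expressed fusion library, cells FACS-sorted into six equal-sized GFP/DsRed ratio bins, PSI computed from sequencing read fractions per bin weighted by bin number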
# condition_context: c terminus: native
readout_type: protein stability index
Please reply with the number alone, leaving off any unit.

Prompt line: Param item = P23R ; retrieve measured protein stability index.
Response line: 3.78

Prompt line: Repeat for the following variant: T22H
Response line: 3.06

Prompt line: P23D , same question.
Response line: 5.08

Prompt line: What about this variant? D9I
Response line: 2.27

Prompt line: Now give it for D13E too.
Response line: 2.72

Prompt line: Then this variant: S8V
Response line: 2.42

Prompt line: Would you mind doing S7L as well?
Response line: 2.26

Prompt line: Now consider G2K and answer again.
Response line: 2.13

Prompt line: Follow-up item: T22R
Response line: 3.98

Prompt line: Then what about the variant S21A ?
Response line: 2.21

Prompt line: Now this one: G2R
Response line: 2.97

Prompt line: Then this variant: S7H
Response line: 3.09

Prompt line: Same question for I4Q please.
Response line: 2.94

Prompt line: Another: D13P
Response line: 2.3

Prompt line: And D9V ?
Response line: 2.54

Prompt line: Next variant up: T22C
Response line: 2.36

Prompt line: // query: D1A
Response line: 2.37

Prompt line: Cool, now H15T
Response line: 2.77

Prompt line: Follow-up item: N10W
Response line: 2.42

Prompt line: L14I , same question.
Response line: 2.35

Prompt line: Then this variant: V6M
Response line: 2.31

Prompt line: Moving on to N10V
Response line: 2.39

Prompt line: Also need L14T , thanks.
Response line: 2.86

Prompt line: Further, for H15L ?
Response line: 2.66

Prompt line: Next entry: G20Y
Response line: 3.29

Prompt line: Query D13Q next
Response line: 2.47

Prompt line: Please answer likewise for Y18C
Response line: 3.09

Prompt line: Next variant up: W3K
Response line: 5.21

Prompt line: How about this variant: H15A
Response line: 2.51

Prompt line: Thanks! And N10Y ?
Response line: 2.36

Prompt line: Request: S21C
Response line: 1.98

Prompt line: W3F ?
Response line: 4.08

Prompt line: Moving on to the next variant: P23Y
Response line: 4.27

Prompt line: Consider next the variant V6Y in the same way.
Response line: 2.48

Prompt line: Next variant up: N10A
Response line: 1.84

Prompt line: // same read-out, input: I4A
Response line: 2.92

Prompt line: Then D9L ?
Response line: 2.42

Prompt line: Quick one: V6C
Response line: 3

Prompt line: Param item: H15S
Response line: 2.47

Prompt line: Request: S21N
Response line: 1.94

Prompt line: Next up: G2C
Response line: 2.21

Prompt line: Another variant: E16F
Response line: 2.46

Prompt line: Next entry: D13T
Response line: 2.47

Prompt line: Same lookup for K17M , please.
Response line: 3.19

Prompt line: Try D1S next.
Response line: 2.53

Prompt line: Let us now turn to S7Y
Response line: 2.39

Prompt line: Subsequent entry: I4V
Response line: 2.17

Prompt line: Follow-up item: N10G
Response line: 2.86

Prompt line: Thanks! And L14Y ?
Response line: 2.5

Prompt line: Moving on to the next variant: L14R
Response line: 2.41

Prompt line: And the next one, P23V ?
Response line: 4.02

Prompt line: One more variant: V6R
Response line: 2.13

Prompt line: Try this variant next: R5P
Response line: 4.15

Prompt line: Let us now turn to I4G
Response line: 4.49

Prompt line: Do the same for W3Y please
Response line: 5.02

Prompt line: Then this variant: H15D
Response line: 2.85

Prompt line: Please do the same for D9F as well.
Response line: 2.27

Prompt line: Please give the result for S21D too.
Response line: 4.54

Prompt line: Check G20S too.
Response line: 3.44

Prompt line: Entry A12S please
Response line: 2.24

Prompt line: Repeat with A12G
Response line: 2.68

Prompt line: Queued: V11H
Response line: 2.29
